Target: T1, human CLDN4 protein (human, UniProt O14493 1-209)
T1 construct: whole, on cells; also called hCLDN4; claudin 4
T1 sequence (looked up): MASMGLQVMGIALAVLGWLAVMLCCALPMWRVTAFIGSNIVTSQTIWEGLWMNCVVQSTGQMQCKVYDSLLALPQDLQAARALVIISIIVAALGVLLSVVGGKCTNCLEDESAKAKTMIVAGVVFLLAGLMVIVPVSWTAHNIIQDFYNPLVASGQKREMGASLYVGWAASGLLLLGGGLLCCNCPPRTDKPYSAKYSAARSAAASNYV
Test: flow cytometry on cells overexpressing human CLDN4; 10 µg/mL purified antibody, Alexa 647 anti-mouse secondary; single point
Parameter measured: MFI
Number only, no unit.

Request: What MFI value was documented for this binder, SC27.203 (antibody, V domains shown, also called SC27.203 mouse monoclonal anti-CLDN antibody) VH: EVQLQQSGPELVKPGASVKISCKTSGYTFTENIIHWVKQSHGKSLEWIGGINPINGGTSYNQKFKGKATLTVDKSSSTAYMELRSLTSEDSAVYYCARGITTSPYAMDYWGQGTSVTVSS VL: DIQMTQSSSSFSVSLGDRVTITCKASEDIYNRLAWYQQNPGNTPRLLMSGATSLETGVPSRFSGSGSGKDYTLSITSLQIEDVSTYYCQQYWSTPPTFGGGTRLEIK ?
Result: 2980
